Test system: NIH/3T3 cell line
protocolText: Cell confluence / number of cells per image in NIH/3T3 cells
Type: cell-based, mouse
runParameters: 48 hours, serial dilution 5-0.02 μM
readoutLabel: number of cells compared to untreated cells

>>> df
                                querysmiles         valuereported
0  Cc1nc(C(=O)NCC(=O)O)c(O)c2ccc(Oc3ccccc3)cc12  significantly higher
1     O=C(O)CNC(=O)c1ncc(-c2cccc(Cl)c2)cc1O  significantly higher

---

Test system: fibroblasts
protocolText: Cell-Titer assay of cellular ATP levels, fibroblasts
Assay type: cell-based
runParameters: Homo sapiens, Fibroblast; summary statement for the treated cells (fibroblasts and osteoblasts); read-out: IC50 of cellular viability of ML228-treated cells
readoutLabel: IC50

In [3]: df
Out[3]:
                                querysmiles  valuereported
0  c1ccc(-c2ccc(CNc3nc(-c4ccccn4)nnc3-c3ccccc3)cc2)cc1        ~600 nM
